- Protocol text: qHTS assay to identify small molecule antagonists of the progesterone receptor (PR) signaling pathway - cell viability counter screen (AID 1346798); further: nearly all actives have a fitted effect of over 50% in size
- Experimental context: PR-UAS-bla HEK293T viability, CellTiter-Glo luminescence, 16 h; series mostly up to 92.4 µM
Inconclusive results are not listed. Active and inactive are the calls of the source. The call rests on the fitted dose curve; in most records, active means well fitted cell-killing curve with a large enough effect in the repeat runs; inconclusive means weak or mixed curves, or effect the other way; inactive means no such curve, though single readings can be large or run the other way.
Return exactly one item of Y (active), N (inactive)

Query: For `COCC(=O)O[C@]1(CCN(C)CCCc2nc3ccccc3[nH]2)CCc2cc(F)ccc2[C@@H]1C(C)C` , what call appears in the results of this test?
Result: Y

Query: Please answer likewise for CCNc1nc(NC(C)CC)nc(OC)n1 (stereo unspecified)
Result: N

Query: Repeat for the following molecule: `CSc1c(Cl)c(Cl)c(Cl)c(Cl)c1Cl`
Result: N

Query: Quick one: `Cn1cccc1`
Result: N

Query: Input `CCOC(=O)N1CCC(=C2c3ccc(Cl)cc3CCc3cccnc32)CC1`
Result: Y

Query: `COc1ccccc1C=O` ?
Result: N

Query: Further, for `CCc1ccc(C)nc1` ?
Result: N

Query: Now the molecule `CCCCCCCCCCCCOC(=O)c1cc(O)c(O)c(O)c1`
Result: Y

Query: Now consider `c1ccc2c(c1)CCC2` .
Result: N

Query: Another: `CC(C)CCOCCC(C)C`
Result: N

Further cases:
Query: Recorded call for CCC(C)C(=O)OC (stereo unspecified) ?
Result: N

Query: // next record `O=C(O)c1cccc(Cl)n1`
Result: N

Query: Similarly, CCCCN(CCCC)CCC(O)c1cc2c(Cl)cc(Cl)cc2c2cc(C(F)(F)F)ccc12 (stereo unspecified) ?
Result: N
